Molecular target: HilD^Q290A (Salmonella typhimurium, UniProt P0CL08, Q290A)
Test: ELISA binding of fatty acids to mutant HilD^Q290A
readout: pKd
On this scale, pKd is minus log10 of a concentration expressed in M (mol/L).

Case CCCCCCCCCCCCC/C=C\C(=O)O [c2-HDA, cis-2-hexadecenoic acid] , HilD^Q290A (Salmonella typhimurium, UniProt P0CL08, Q290A), pKd recorded as 4.90

###

Measured Kd of individual entries
Molecular target: HilD (Salmonella typhimurium, UniProt P0CL08)
Experiment: biochemical
Assay type: binding
Parameters: made in house; host or cells: E. coli BL21(DE3), pET15b
Details: Kd, HilD without formic acid preincubation
Supply the numeric figure in µM, leaving out any unit text.

CCCCCCCCCCCCC/C=C\C(=O)O [c2-HDA, cis-2-hexadecenoic acid]; 5.19

// next item, Kd requested
Entry under test: "CCCCCCCC/C=C\CCCCCCCC(=O)O" . Its Kd was 136

###

Target: HilD (Salmonella typhimurium)
Sequence (P0CL08 1-309): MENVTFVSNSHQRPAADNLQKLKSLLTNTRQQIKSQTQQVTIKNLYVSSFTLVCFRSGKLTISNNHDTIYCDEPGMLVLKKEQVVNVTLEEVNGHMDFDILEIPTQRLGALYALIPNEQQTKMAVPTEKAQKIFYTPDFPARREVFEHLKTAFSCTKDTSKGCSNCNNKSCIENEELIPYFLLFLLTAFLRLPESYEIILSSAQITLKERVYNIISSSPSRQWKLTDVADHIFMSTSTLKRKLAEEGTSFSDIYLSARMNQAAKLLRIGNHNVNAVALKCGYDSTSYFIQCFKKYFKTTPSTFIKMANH
Assay: biochemical
Type: binding
Parameters: made in house; host or cells: E. coli BL21(DE3), pET15b
Conditions: HilD preincubated with formic acid (500 μM); read-out: Kd
Measured pKd of individual entries
On this scale, pKd is minus log10 of a concentration expressed in M (mol/L).

CCCCCCCCCCCCCCCCC/C=C\C(=O)O; 3.42

// next item, pKd requested
Entry under test: "CCCCCCCCCCCCC/C=C/C(=O)O" . Its pKd was 3.75

meta.source: paper PMC10127606
